Data origin: patent US9862726B2

Reported Emax by item:
- TARGET: κ-opioid receptor (Homo sapiens (Human))
- ASSAY INFO: κ-opioid receptor functional assay (U-2 OS cells)
- Type: biochemical
- CONDITION: U-2 OS cells; relative to U69,593
METRIC: Emax (%)

                                smiles_input  quantity_unit  recorded_value
 0  CC(C)(C)C(=O)N[C@]12CC[C@@]3(OC1)[C@H]1Cc4ccc(O)cc4[C@@]3(CCN1CC1CC1)C2              %            91.7
 1  COc1ccc2c(c1)[C@]13CCN(CC4CC4)[C@H](C2)[C@]12CC[C@@](NC(=O)c1ccc(Cl)cc1)(CO2)C3              %             115
 2  COc1ccc2c(c1)[C@]13CCN(CC4CC4)[C@H](C2)[C@]12CC[C@@](N1CCOCC1)(CO2)C3              %             104
 3  COc1ccc2c(c1)[C@]13CCN(CC4CC4)[C@H](C2)[C@]12CC[C@@](Nc1ccccc1)(CO2)C3              %             105
 4  O=C(N[C@]12CC[C@@]3(OC1)[C@H]1Cc4ccc(O)cc4[C@@]3(CCN1CC1CC1)C2)c1ccccc1              %            93.3
 5  COc1ccc2c(c1)[C@]13CCN(CC4CC4)[C@H](C2)[C@]12CC[C@@](NC(=O)c1ccccc1)(CO2)C3              %             111
 6  COc1ccc2c(c1)[C@]13CCN(CC4CC4)[C@H](C2)[C@]12CC[C@@](NC(=O)CC(F)(F)F)(CO2)C3              %             115
 7  COc1ccc2c(c1)[C@]13CCN(CC4CC4)[C@H](C2)[C@]12CC[C@](N)(C3)C(=O)O2              %              99
 8  COc1ccc2c(c1)[C@]13CCN(CC4CC4)[C@H](C2)[C@]12CC[C@@](NC(=O)C(C)(C)C)(CO2)C3              %             111
 9  O=C1O[C@@]23CC[C@]1(O)C[C@@]21CCN(CC2CC2)[C@@H]3Cc2ccc(O)cc21              %            91.7
10  COc1ccc2c(c1)[C@]13CCN(CC4CC4)[C@H](C2)[C@]12CC[C@@](NC(=O)CCc1ccccc1)(CO2)C3              %             110
11  COc1ccc2c(c1)[C@]13CCN(CC4CC4)[C@H](C2)[C@]12CC[C@@](NCc1ccccc1)(CO2)C3              %             107
12  COc1ccc2c(c1)[C@]13CCN(CC4CC4)[C@H](C2)[C@]12CC[C@@](NC(=O)C1CC1)(CO2)C3              %             111
13  COc1ccc2c(c1)[C@]13CCN(CC4CC4)[C@H](C2)[C@]12CC[C@@](NS(=O)(=O)c1ccc(Cl)cc1)(CO2)C3              %             114
14  N[C@]12CC[C@@]3(OC1)[C@H]1Cc4ccc(O)cc4[C@@]3(CCN1CC1CC1)C2              %             106
